Catalogue of nuclei count values
experiment: inhibitors of mutant huntingtin aggregation, primary screen, imaging, exon1htt(103Q)mCFP cells, high-content imaging (AID 483); settings: exon1htt(103Q)mCFP cell line, aggregate imaging, at 2 µM; measured here: cell count, toxicity;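 note: compound exposure lasted 3 days before fixation; percent of the per-plate median nuclei count of sample wells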
Just the number please, in %, no unit attached.

{"Molecule": "CCCCC[C@H](O)/C=C/[C@@H]1[C@@H](CCCCCCC(=O)O)[C@@H](O)C[C@H]1O", "Property Name": "nuclei count", "Endpoint Unit": "%", "Measured Result": 106}

Field nuclei count (entry COC(=O)C(NC(C)=O)(Nc1nc2ccc(S(C)(=O)=O)cc2s1)C(F)(F)F (stereo not given) ) reads 102

Field nuclei count (entry O=C(CSc1nnc(-c2ccco2)c(-c2ccco2)n1)Nc1ccccc1 ) reads 100

Field nuclei count (entry CCSC(SCC)[C@H](O)[C@@H](O)[C@H](O)[C@H](O)CO ) reads 107

Field nuclei count (entry CC1(C)CNC(=O)c2sc(N3CCOCC3)nc2C1 ) reads 76.6

###

target: Voltage-gated potassium channel subunit beta-2 (Rattus norvegicus) (UniProt P62483); experiment: KvBeta positive modulators, primary screen, biochemical, NADPH fluorescence (AID 623); conditions: Recombinant KvBeta, NADPH fluorescence decrease slope, 10 min; at 10 µM; stronger effect = lower value;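 note: fluorescence intensity change per second fitted from 20 to 320 s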
Sequence (P62483 whole entry, looked up): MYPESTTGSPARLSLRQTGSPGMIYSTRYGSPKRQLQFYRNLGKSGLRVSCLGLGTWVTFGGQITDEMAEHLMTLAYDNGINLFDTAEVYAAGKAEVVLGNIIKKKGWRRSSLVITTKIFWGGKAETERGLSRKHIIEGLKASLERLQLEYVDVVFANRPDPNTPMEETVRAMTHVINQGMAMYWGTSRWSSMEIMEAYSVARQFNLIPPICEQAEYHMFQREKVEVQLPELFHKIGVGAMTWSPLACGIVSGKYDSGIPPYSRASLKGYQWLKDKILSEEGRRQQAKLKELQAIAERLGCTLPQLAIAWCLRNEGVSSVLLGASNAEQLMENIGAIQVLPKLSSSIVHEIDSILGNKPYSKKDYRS
Property Name: NADPH fluorescence slope
Keep it simple and answer with nothing but the number.

{"Molecule": "Cn1c(=O)c2c(nc(NCc3ccc4c(c3)OCO4)n2Cc2ccccc2F)n(C)c1=O", "NADPH fluorescence slope": -0.000288}

Field NADPH fluorescence slope (entry CCCNC(=O)N(C)c1nncnc1C(=O)NC ) reads 1.1e-05

Field NADPH fluorescence slope (entry CC(C)(C)NCC(=O)c1c[nH]c2ccccc12 ) reads 5.2e-06

Field NADPH fluorescence slope (entry O=C(O)c1cnn2c(C(F)(F)F)cc(-c3ccco3)nc12 ) reads -7.9e-05

Field NADPH fluorescence slope (entry C=CCOC(=O)C(C#N)c1nc2ccccc2nc1N1CCN(c2ccccc2OCC)CC1 (stereo unspecified) ) reads -3.6e-05

Field NADPH fluorescence slope (entry CCOC(=O)c1ccc(-n2c(=O)[nH]c3ccccc3c2=O)cc1 ) reads -5.7e-05

###

experiment: inhibitors of E-selectin induction by TNFa, primary screen, imaging, HUVEC, immunofluorescence, MLSMR starter and 10KST1 sets (AID 487); settings: HUVEC TNFalpha-induced E-selectin immunofluorescence imaging, at 2 µM; stronger effect = higher value;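 for inhibition: signal is fraction of cell area covered by stained E-selectin grains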
Is inhibition at least -30%? Then fulfilled. If not, not fulfilled.

Recorded results for 3 compounds are shown here.
{"Compound": "COc1cccc(OC)c1OCCN1CCN(C(=O)c2ccco2)CC1", "Answer Label": "fulfilled"}
{"Compound": "Cc1ccc(C)c(OCc2nnc(NC(=O)c3ccco3)s2)c1", "Answer Label": "fulfilled"}
{"Compound": "CN(C)C=C1C(=O)c2ccccc2C1=O", "Answer Label": "not fulfilled"}

Determine whether measured inhibition meets or exceeds -30% for NS(=O)(=O)c1ccc(C(=O)O)cc1
not fulfilled

Determine whether measured inhibition meets or exceeds -30% for C=CCOc1nc2c(c(=O)n(C)c(=O)n2C)n1Cc1c(Cl)cccc1Cl
fulfilled

Determine whether measured inhibition meets or exceeds -30% for COc1ccc2c(c1)C1(C)CC(C)(C)N2C(=O)N1c1ccccc1 (stereo unspecified)
not fulfilled

Determine whether measured inhibition meets or exceeds -30% for CC(C)Cc1[nH]c(=O)c(C#N)c2c1CCCC2
fulfilled

Determine whether measured inhibition meets or exceeds -30% for COc1ccc(OCC(O)Cn2c(Nc3cccc(C)c3)nc3c2c(=O)n(C)c(=O)n3C)cc1 (stereo unspecified)
not fulfilled

Determine whether measured inhibition meets or exceeds -30% for CC(=O)N1CCN(c2nc(CC(C)C)c3c(c2C#N)CCC3)CC1
not fulfilled

Determine whether measured inhibition meets or exceeds -30% for Cc1ccc2[nH]c3c(N4CCOCC4)ncnc3c2c1
fulfilled

Determine whether measured inhibition meets or exceeds -30% for O=C1OC(c2ccc(O)cc2)(c2ccc(O)cc2)c2ccccc21
not fulfilled

###

Catalogue of nuclei count values
assay: inhibitors of E-selectin induction by TNFa, primary screen, imaging, HUVEC, immunofluorescence, MLSMR starter and 10KST1 sets (AID 487); conditions: HUVEC TNFalpha-induced E-selectin immunofluorescence imaging, at 2 µM; measured here: cell number, toxicity;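 for nuclei count: 100% = median nuclei count of all wells on the same plate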
Just the number please, in %, no unit attached.

Example compounds with recorded nuclei count:
{"Compound": "Cc1nc(SC2C=CS(=O)(=O)C2)n[nH]1 (centres undefined)", "Measured Result": 139}
{"Compound": "CC1(C)Cc2c(C#N)c(N3CCOCC3)nc(-c3ccccc3)c2CO1", "Measured Result": 109}
{"Compound": "Cc1cc(C)cc(CC2CC(=O)N(c3cc(C)on3)C2=O)c1 (centres undefined)", "Measured Result": 132}
{"Compound": "c1ccc(-c2nnc3sc(Cc4cccs4)nn23)cc1", "Measured Result": 174}
{"Compound": "CCOC(=O)C1CCN(C(C)=C2C(=O)c3ccccc3C2=O)CC1", "Measured Result": 95.3}
{"Compound": "OCCN(CCO)c1ncnc2c1sc1nc(N3CCOCC3)c3c(c12)CCCC3", "Measured Result": 167}

Field nuclei count (entry O=C(c1ccc2c(c1)OCCO2)N1CCCCC1 ) reads 122

Field nuclei count (entry Oc1c(Cl)cc(Cl)cc1CNc1ccc(Br)cn1 ) reads 102

Field nuclei count (entry COC(=O)c1ccc(C2C(C(=O)c3cc4ccccc4o3)=C(O)C(=O)N2CCCN(C)C)cc1 (centres undefined) ) reads 167

Field nuclei count (entry COCCc1ccc(OCC(O)CNC(C)C)cc1 (centres undefined) ) reads 108

Field nuclei count (entry CCCC1C2C(=O)N(c3ccccc3OC)C(=O)C2ON1c1ccccc1 (centres undefined) ) reads 93.8

Field nuclei count (entry COC(=O)C1=C(C)N=C2SC(C)C(=O)N2C1c1cccs1 (centres undefined) ) reads 142

Field nuclei count (entry N#CC1=C(N)NC(SCc2ccc(F)cc2)=C(C#N)C12CCCCC2 ) reads 164

Field nuclei count (entry C[C@]12CCC(=O)C=C1CC[C@@H]1[C@@H]2C(=O)C[C@@]2(C)[C@H]1CC[C@]2(O)C(=O)CO ) reads 120

Field nuclei count (entry CCOC(=O)N1CCC(=C2c3ccc(Cl)cc3CCc3cccnc32)CC1 ) reads 132

Field nuclei count (entry CNc1nc(C)c(C#N)cc1C(C)=O ) reads 166

Field nuclei count (entry Cc1cccc2c1NC(C)CC2C (centres undefined) ) reads 187

Field nuclei count (entry CNC(=O)c1cc2ccccc2o1 ) reads 132

Field nuclei count (entry COc1cccc(C2C(C#N)=C(N)Oc3cc(C)[nH]c(=O)c32)c1OC (centres undefined) ) reads 158

Field nuclei count (entry CN(C)CCNc1nc(-c2ccco2)c2c(c1C#N)CC(C)(C)OC2 ) reads 164

Field nuclei count (entry CC(=O)Nc1ccc(S(=O)(=O)Nc2nc3n(n2)C(c2ccccc2)CC(=O)N3)cc1 (centres undefined) ) reads 137

Field nuclei count (entry CC1(C)CN(O)CCN1O ) reads 104

Field nuclei count (entry C[C@@H]1C[C@H](Nc2ccccc2)c2ccccc2N1C(=O)c1cccnc1 ) reads 159

Field nuclei count (entry CCN(CC)CCN1C(=O)C(=O)/C(=C(/O)c2c(C)[nH]c(C(=O)OC)c2C)C1c1ccco1 (centres undefined) ) reads 120

###

biological target: Dual specificity protein phosphatase 6 (Homo sapiens); experiment: DUSP6 inhibitors restoring Erk phosphorylation by chemical complementation, primary imaging in DUSP6-transfected HeLa (AID 609); conditions: HeLa MKP-3 transfected, phospho-Erk imaging KS statistic; at 10 µM; stronger effect = higher value; cells stimulated with TPA for 15 min;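 note: phospho-Erk level distribution per well compared with pooled transfected vehicle control wells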
Catalogue of inhibition values
Just the number please, in %, no unit attached.

{"Compound": "COc1ccc(-c2cc(-c3ccccc3)n3ncnc3n2)cc1", "Endpoint Unit": "%", "inhibition": -1.12}
{"Compound": "COc1cccc(-c2nc(NC(C)(C)C)c3ccccc3n2)c1O", "Endpoint Unit": "%", "inhibition": -1.75}
{"Compound": "O=C1C2ON(c3ccccc3)C(c3cccnc3)C2C(=O)N1c1ccccc1 (stereo unspecified)", "Endpoint Unit": "%", "inhibition": 16}
{"Compound": "Nc1ccc(Cl)cc1/C(=N/O)c1ccccc1", "Endpoint Unit": "%", "inhibition": 1.75}
{"Compound": "CCOC(=O)C1=C(C)N=C2SC(C)C(=O)N2C1c1ccc(OC(C)=O)c(OC)c1 (stereo unspecified)", "Endpoint Unit": "%", "inhibition": -4.59}

Field inhibition (entry Brc1cccc(-c2cnc3n2CCCCC3)c1 ) reads -8.95

Field inhibition (entry N#CC1(P(=O)(c2ccccc2)c2ccccc2)CC1 ) reads 11.3

Field inhibition (entry COc1cc(C2C(C(=O)c3ccc(C)o3)=C(O)C(=O)N2c2cc(C)on2)cc(OC)c1OC (stereo unspecified) ) reads 19.3

Field inhibition (entry CCOCCN(C(=O)COC)c1cccc(OC)c1 ) reads -5.62

Field inhibition (entry CCC1(C)Cc2ccccc2-c2nc(NCCO)n(-c3ccccc3)c(=O)c21 (stereo unspecified) ) reads -14

Field inhibition (entry Cc1c(C)c2cc(Cl)c(O)c(CN3CCN(C)CC3)c2oc1=O ) reads -10.5
